# Experimental details: yeast display, Sf9 membrane polyspecificity reagent, FACS + sequencing; frameworks hold sequencing errors
Experimental readout: polyreactivity (PSR sort gate)

• QVQLVEARGGLVQAGGSLRLSCAASGSILRYTMGWYRPAPGKERELVAAITRSGTSTYYADSVKGRFTISRDNAKNTVYLQMNSLKPEDTAVYYCAAREKYASHEYDYWGQGTQVTVSS = high polyreactivity
• QVQLVQSGGGLVQAGGSLRLSCAASGITFWGNAMGSYRQAPGKEREFIARINWSGGRTYYAESVKGRFTISRDNEKNNVYLQMNSLKPEDTAVYYCAATSLIYGYRTYDYWGQGTQVTVSS = high polyreactivity
• QVQLVESGGGLVQAGGSLRLSCAASGSIFKGNAMGWYRQAPGKERDLVAAISRSGGSTYYADSVKGRFTISRDNAKNTVYLQMNSLKPEDTAVYYCNAVRRNTVRSKGRYDYWGQGTQVTVSS = high polyreactivity

----------
# Experimental details: yeast display, Sf9 membrane polyspecificity reagent, FACS + sequencing; frameworks hold sequencing errors
Experimental readout: polyreactivity (PSR sort gate)

The cases that follow already have their polyreactivity (PSR sort gate) on record.
* QGQLVESGGGLVQAGGSLRLSCAASGISLKYAMGWYRQAPGKERELVASISSRGTSTYYADSVKGRFTISRDNAMNTVYLQMNSLKPEDTAVYYCNTVPPYWWGYWYKGDHWGQGTQGTVSS | high polyreactivity
* QVQLVESGGGLVQAGGSLRLSCAASGYIFLPYAMGWYRQARGKEREVVAAIRWSGGSTYYADSVKGRFTISRDNAKNTVYLQMNSLKPEDTAVYYCAAYYVARDRRYPKAYSYEYWGQGTQVTVLS | high polyreactivity
* QVQLVESGGGLVQAGGSLRLSCAASGSIFAFYAKGWYRQAPGKERELVAYITSGGSTYYADSVKGRFTISRDNAKNNVYLQMNSLKPEDTAVYYFNSVYYSALVSGGETTIKRRYYWGQGTQVTVSS | high polyreactivity
* QVHLVESGGGLVQAGGSLRLSCAASGFTITYNAMGWYRQAPGKEREFVAAITNNGSTYYADSVKGRFTISRDNAKNSVYLQMKSLKPEDTAVYYCAVDRGYYDEYNYWGQGTHVTVSS | low polyreactivity
* QVHLVESGGGLVQAGGSLRLSCAASGITFWGNAMGWYRHAPGKEREFVARINWSGGRTYYAESVKGRFTISRDNAKITVYLQMKSLKPEDTAVYYCAATSLIYGYRTYVYWGQGTQVTVSS | high polyreactivity

Q. Read the entry QVQLVESGGGLVQAGGSLRLSCAASGFIFYRNALGWYRQAPGKERELVAVIRWSGTSTSYADSVKGRFTISRDNAKNTVYLQMNSLKPEDTAVYYCNAAWYDLYGDSDGDDYWGQGTQVTVSS and write its reported polyreactivity (PSR sort gate).
A. low polyreactivity

Q. Read the entry QVQLVESGRGLVQAGGSLRLSCAASGRTFYYYTMGWYRQAPGKERELVAAISYSGGSTSYADSVKGRFTISRYNAKNTVYLQMNRLKPEDTAVYYCNAPYKYYTQRRYHYDYCGQGTQVTVSS and write its reported polyreactivity (PSR sort gate).
A. high polyreactivity

Q. Read the entry QVQLQESGGGLVQAGGDLRLSCAASGNIFRDYIMGWYRQAPGKEREFVAGIDRGANTNYADSVKGRFTISRDNAINTVYLQMKSLKPVDTAVYYCAVHTAFVPDFIYWGQGTQVTVSS and write its reported polyreactivity (PSR sort gate).
A. low polyreactivity

Q. Read the entry QVQLVESGGGLVQAGGSLRLSCAASGRTFWYYTMGWYRQAPGKERELVAAISRSGGSTYYADSVKGRFTISRDNAKNTVYLQMNSLKPEDSAVYFCAAGVQSSVYPYYRFDYWGQGTQVTVSS and write its reported polyreactivity (PSR sort gate).
A. high polyreactivity

Q. Read the entry QVQLVESGGGLVQAGGSLRLSCAASGRTFYKYAMGWSRQAPGKERELVAAISSDGTTYYADSVKGRFTISRDNAKNTVYLQMNSLKPEDTAVYYCAADPPPPFLYVSVQEYDYWGQGTQVTVSS and write its reported polyreactivity (PSR sort gate).
A. low polyreactivity

Q. Read the entry QVQLVESGGGLVQAGGSLRLSCAASGSTFVRNVMGWYRQAPGKEREFVAAITRSGGSTYYADSVKGRFTISRDNAKNTVYLQMNSLKPEDTAVYYCIVPPGYRLSQYEYDYWGQGTQVTVSS and write its reported polyreactivity (PSR sort gate).
A. low polyreactivity

Q. Read the entry QVQLEESGGGLVQAGGSLRLSCAASGRIFDDNAMGWYRQAPGKERELVAAISSGDSTKYADSVKGRFTISRDNAKNTVYLQMNSLKPEDTAVYYCAAERNHGLVGSESVGRNDYWGQGTQVTVSS and write its reported polyreactivity (PSR sort gate).
A. low polyreactivity

Value source: the nanobody polyreactivity screen of Harvey et al. (2022)
